- RUN_DESCRIPTION: In vitro plasma stability, human plasma
- Format: in vitro ADME
- COND: male, pH 7.4, 5 μM, 37° C., sampling 0-360 minutes, read-out: T1/2 Human
READOUT_TYPE: half-life at 5 μM

# get_value(readout='half-life at 5 μM', item= CN1N=C(C(C)(C)C)C(NO)(c2ccc(S(=O)(=O)N(C)C)cc2)C1=O (stereo not drawn) [Compound 122] )
31 min

# get_value(readout='half-life at 5 μM', item= CC1=NN(C)C(=O)C1(NO)c1noc(-c2ccccc2)n1 (stereo not drawn) [Compound 132] )
< 1 min

# get_value(readout='half-life at 5 μM', item= CCOC1=NN(c2ccccc2)C(=O)C1(C)NO (stereo not drawn) [Compound 127] )
> 480 min

* * *

- RUN_DESCRIPTION: In vitro plasma stability, human plasma
- Type: in vitro ADME
- COND: male, pH 7.4, 5 μM, 37° C., sampling 0-360 minutes, read-out: T1/2 Human
READOUT_TYPE: half-life at 5 μM (min)

Example entries begin here.
| MOLECULE | TEST_RESULT |
| --- | --- |
| CC1=NN(C)C(=O)C1(NO)c1ccc(F)cc1 (stereo not drawn) | 21 |
| CCS(=O)(=O)c1ccc(C2=NN(C)C(=O)C2(C)NO)cc1 (stereo not drawn) | 47 |
| CCO/N=C(\C)C1(NO)C(=O)NN=C1C(C)(C)C (stereo not drawn) | 17 |

[1] CC1=NN(C(C)C)C(=O)C1(NO)c1ccccc1 (stereo not drawn)
[2] C/C(=N\Oc1ccccc1)C1(NO)C(=O)N(C)N=C1C(C)(C)C (stereo not drawn)
Given the two records 1 and 2 , choose the one whose half-life at 5 μM value is lower. Please reply using the label of the selected record.
2
(2: 12 min, 1: 22 min)

* * *

- RUN_DESCRIPTION: In vitro plasma stability, dog plasma
- Type: in vitro ADME
- COND: male, pH 7.4, 5 μM, 37° C., sampling 0-360 minutes, read-out: T1/2 Dog
READOUT_TYPE: half-life at 5 μM (min)

| MOLECULE | VALUE_UNITS | TEST_RESULT |
| --- | --- | --- |
| CCOc1cc(F)ccc1C1=NN(C)C(=O)C1(C)NO (stereo not shown) | min | 44 |
| Cc1cc(C2=NN(C)C(=O)C2(C)NO)ccc1[S+](C)[O-] (stereo not shown) | min | 59 |

[1] CN1N=C(c2ccc(S(C)(=O)=O)c(F)c2)C(C)(NO)C1=O (stereo not shown)
[2] CN1N=C(c2ccccc2)C(C)(NO)C1=O (stereo not shown)
[3] CN1N=C(c2ccc(F)cc2)C(C)(NO)C1=O (stereo not shown)
[4] CO/N=C(\C)C1(NO)C(=O)N(C)N=C1c1ccc(S(=O)(=O)N(C)C)cc1 (stereo not shown)
[5] CO/N=C(\C)C1(NO)C(=O)NN=C1C(C)(C)C (stereo not shown)
Returns the items ordered by half-life at 5 μM, from maximum to minimum. Answer by listing the labels in the order asked for.
3, 2, 1, 5, 4

* * *

- RUN_DESCRIPTION: In vitro plasma stability, dog plasma
- Assay type: in vitro ADME
- COND: male, pH 7.4, 5 μM, 37° C., sampling 0-360 minutes, read-out: T1/2 Dog
READOUT_TYPE: half-life at 5 μM (min)

| MOLECULE | half-life at 5 μM (min) |
| --- | --- |
| CN1N=C(C(C)(C)C)C(NO)(c2ccccc2)C1=O (stereo not drawn) | 75 |
| Cc1cc(C)cc(C2=NN(C)C(=O)C2(C)NO)c1 (stereo not drawn) | 117 |
| CC1=NN(C)C(=O)C1(NO)/C(C)=N/OCC(C)C (stereo not drawn) | 4 |
| CN1N=C(c2cccc(Cl)c2Cl)C(C)(NO)C1=O (stereo not drawn) | 15 |
| CN1N=C(c2ccc(C(=O)NCC(=O)O)cc2)C(C)(NO)C1=O (stereo not drawn) | 120 |
| CN1N=C(c2ccc(Br)cc2)C(C)(NO)C1=O (stereo not drawn) | 136 |
| C/C(=N\OCc1ccccc1)C1(NO)C(=O)N(C)N=C1C(C)(C)C (stereo not drawn) | 27 |
| CN1N=C(c2ccc(S(C)(=O)=O)c(Cl)c2)C(C)(NO)C1=O (stereo not drawn) | 27 |

[I] CC(C)S(=N)(=O)c1ccc(C2=NN(C)C(=O)C2(C)NO)cc1 (stereo not drawn)
[II] CN1N=C(c2cccc(Cl)c2)C(C)(NO)C1=O (stereo not drawn)
[III] CN1N=C(c2ccc(Cl)cc2Cl)C(C)(NO)C1=O (stereo not drawn)
[IV] CO/N=C(\C)C1(NO)C(=O)N(C)N=C1c1ccc(S(C)(=O)=O)cc1 (stereo not drawn)
Returns the items ordered by half-life at 5 μM, from maximum to minimum. Answer by listing the labels in the order asked for.
II, I, III, IV
(II: 159 min, I: 31 min, III: 19 min, IV: 5 min)
